# System: HeLa
# protocol_text: cell viability (CellTiter-Glo) relative to median of lowest-dilution wells of all drugs (fraction); higher = more viable cells
# condition_info: drug concentration (unit not stated): 0.12; genotype: control (DDX11 wild type)
Provide the reported cell viability of each item.
One number for each entry.

For orientation, consider the following solved cases.
compound_string	experimental_result
C[C@@H]1COCCN1c1cc(C2([S@](C)(=N)=O)CC2)nc(-c2cc[nH]c3nccc2-3)n1	1.03
CC(C)C[C@H](NC(=O)[C@H](CCc1ccccc1)NC(=O)CN1CCOCC1)C(=O)N[C@@H](Cc1ccccc1)C(=O)N[C@@H](CC(C)C)C(=O)[C@@]1(C)CO1	1.02

### Prompt Please give measured cell viability of the following entry: CN1CC[C@H](c2c(O)cc(O)c3c(=O)cc(-c4ccccc4Cl)oc23)[C@H](O)C1
### Response 1.16

The values you see were collected from the supplement of paper PMC8092582.
